Give kon for every item shown.
tested-target: SARS-CoV-2 spike (S) protein (SARS-CoV-2, UniProt P0DTC2 14-1208)
Answers are plain numbers, in M⁻¹ s⁻¹.

Examples with their reported kon follow.
INSERT INTO assay_data (binder, parameter, measure_unit, meas_value) VALUES
  ('antibody 356 (antibody, V domains shown) VH: QVQLVQSGAEVKKPGASVKVSCKASGYTFTSYGISWVRQAPGQGLEWMGWISAYHGNTNYAQKLQGRVTMTTDTSTSTAYMELRSLRSDDTAVYYCARVGLWWLGHADAFDIWGQGTMVTVSS VL: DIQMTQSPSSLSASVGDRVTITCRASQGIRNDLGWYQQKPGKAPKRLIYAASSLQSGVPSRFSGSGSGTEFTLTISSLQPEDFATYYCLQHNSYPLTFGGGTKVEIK', 'kon', 'M⁻¹ s⁻¹', 26500),
  ('antibody 311 (antibody, V domains shown) VH: QVQLQESGPGLVKPSETLSLTCTVSGYSISSGYYWGWIRQPPGKGLEWIGSIYHSGSTYYNPSLKSRVTISVDTSKNQFSLKLSSVTAADTAVYYCAREETLGSSWYESYIDYWGQGTLVTVSS VL: SYVLTQPPSVSVAPGKTARITCGGNNIGSKSVHWYQQKPGQAPVLVIYYDSDRPSGIPERFSGSNSGNTATLTISRVEAGDEADYYCQVWDSSSDHPRVFGGGTKLTVL', 'kon', 'M⁻¹ s⁻¹', 21300),
  ('antibody 387 (antibody, V domains shown) VH: QVQLVESGGGVVQPGRSLRLSCAASGFTFSSYGMHWVRQAPGKGLEWVAVISYDGSNKYYADSVKGRFTISRDNSKNTLYLQMNSLRAEDTAVYYCAKDDTKNYGDLDIDYWGQGTLVTVSS VL: SYELTQPSSVSVSPGQTARITCSGDVLAKKYARWFQQKPGQAPVLVIYKDSERPSGIPERFSGSSSGTTVTLTISGAQVEDEADYYCYSAADNNLGVFGGGTKLTVL', 'kon', 'M⁻¹ s⁻¹', 21600);

Dear colleague, could you send me kon for each of the items below? Thanks.
1. antibody 305 (antibody, V domains shown) VH: QVQLVESGGGVVQPGRSLRLSCAASGFTFSSYAMHWVRQAPGKGLEWVAVISYDGSNKYYADSVKGRFTISRDNSKNTLYLQMNSLRAEDTAVYYCAREQTSYDYVWGTLGAYYYYGMDVWGQGTTVTVSS VL: SSELTQDPAVSVALGQTVRITCQGDSLRSYYASWYQQKPGQAPVLVIYGKNNRPSGIPDRFSGSSSGNTASLTITGAQAEDEADYYCNSRDSSGNHLVFGGGTKLTVL
2. antibody 297 (antibody, V domains shown) VH: QVQLVESGGGVVQPGRSLRLSCAASGFTFSSYAMHWVRQAPGKGLEWVAVISYDGSNKYYADSVKGRFTISRDNSKNTLYLQMNSLRAEDTAVYYCARSFRGGYYYGMDVWGQGTTVTVSS VL: DIQLTQSPSFLSASVGDRVTITCRASQGISSYLAWYQQKPGKAPKLLIYAASTLQSGVPSRFSGSGSGTEFTLTISSLQPEDFATYYCQQLNSYPLFTFGPGTKVDIK
3. antibody 370 (antibody, V domains shown) VH: QVQLVESGGGVVPPGRSLSLPCAASGFTFSAYAMHWLRQAPGKGLEWVAVISYDGTVKYVADSVRGRFTISRDNSNNTLYLQMTSLRSDDTAVYYCARDLGALAAAPTVYFVHWGQGTLVTVSS VL: SYVLTQPPSVSVAPGKTATITCAGEDIGRKSVHWYQQKPGQAPVLVIFYYSDRPSGIPDRFSGSVSGNTATLTIGRVEAGDEADYFCQVWDRTTNHVIFGGGTKVTVL
4. antibody 336 (antibody, V domains shown) VH: QVQLVESGGGVVQPGRSLRLSCAASGFTFSSYAMHWVRQAPGKGLEWVAVISYDGSNKYYADSVKGRFTISRDNSKNTLYLQMNSLRAEDTAVYYCARAQTDYYDSSGWFDYWGQGTLVTVSS VL: SYELTQPPSVSVSPGQTARITCSGDALPKQYAYWYQQKPGQAPVLVIYKDSERPSGIPERFSGSSSGTTVTLTISGVQAEDEADYYCQSADSSGTPHWVFGGGTKLTVL

Ans.
1: 72600; 2: 79800; 3: 178000; 4: 190000
